# TARGET DESC: Androgen Receptor (Homo sapiens)
# Construct: endogenous in cells; host or cells: VCaP cells
# PROTOCOL DETAILS: Androgen Receptor ELISA assay (PathScan AR ELISA) in VCaP cells: AR degradation, Dmax and DC50
# Type: cell-based
# SETTINGS: VCaP, read-out: VCaP Dmax (%)
MEASURED ENDPOINT: Dmax

Req: Enter Dmax (test system Androgen Receptor (Homo sapiens)) for Cc1ncsc1-c1ccc([C@H](C)NC(=O)[C@@H]2C[C@@H](O)CN2C(=O)[C@@H](NC(=O)COCC2CC3(C2)CC(COc2ccc(N4C(=S)N(c5ccc(C#N)c(C(F)(F)F)c5)C(=O)C4(C)C)cc2)C3)C(C)(C)C)cc1 (some centres unmarked) [Example 202]
Resp: > 71%

Req: Enter Dmax (test system Androgen Receptor (Homo sapiens)) for CC(C)(C)[C@H](NC(=O)COCCCCOc1ccc(-c2ccc(N3C(=S)N(c4ccc(C#N)c(Cl)c4)C(=O)C3(C)C)cc2F)cc1)C(=O)N1C[C@H](O)C[C@H]1C(=O)NCc1ccc(-c2cnco2)cc1 [Example 109]
Resp: > 71%

Req: Enter Dmax (test system Androgen Receptor (Homo sapiens)) for Cc1ncsc1-c1ccc(CNC(=O)[C@@H]2C[C@@H](O)CN2C(=O)[C@H](C(C)C)N2CC(OCCOCCOc3ccc(N4C(=S)N(c5ccc(C#N)c(C(F)(F)F)c5)C(=O)C4(C)C)cc3)=CC2=O)cc1 [Example 314]
Resp: < 25%

Req: Enter Dmax (test system Androgen Receptor (Homo sapiens)) for Cc1ncsc1-c1ccc([C@H](C)NC(=O)[C@@H]2C[C@@H](O)CN2C(=O)[C@H](C(C)C)n2cc(-c3ccnc(N4CC[C@H](Oc5ccc(N6C(=S)N(c7ccc(C#N)c(C(F)(F)F)c7)C(=O)C6(C)C)cc5)C4)c3)cn2)cc1 [Example 609]
Resp: < 25%

Req: Enter Dmax (test system Androgen Receptor (Homo sapiens)) for Cc1ncsc1-c1ccc(CNC(=O)[C@@H]2C[C@@H](O)CN2C(=O)[C@@H](NC(=O)COCCCCOc2ccc(-c3ccc(N4C(=S)N(c5ccc(C#N)c(C(F)(F)F)c5)C(=O)C4(C)C)cn3)cc2)C(C)(C)C)cc1 [Example 102]
Resp: > 71%

====

Consider the following compounds; for each one, report its Dmax.
# TARGET DESC: Androgen Receptor (Homo sapiens, UniProt P10275)
# Construct: endogenous in cells; host or cells: VCaP cells
# Sequence (P10275 1-920): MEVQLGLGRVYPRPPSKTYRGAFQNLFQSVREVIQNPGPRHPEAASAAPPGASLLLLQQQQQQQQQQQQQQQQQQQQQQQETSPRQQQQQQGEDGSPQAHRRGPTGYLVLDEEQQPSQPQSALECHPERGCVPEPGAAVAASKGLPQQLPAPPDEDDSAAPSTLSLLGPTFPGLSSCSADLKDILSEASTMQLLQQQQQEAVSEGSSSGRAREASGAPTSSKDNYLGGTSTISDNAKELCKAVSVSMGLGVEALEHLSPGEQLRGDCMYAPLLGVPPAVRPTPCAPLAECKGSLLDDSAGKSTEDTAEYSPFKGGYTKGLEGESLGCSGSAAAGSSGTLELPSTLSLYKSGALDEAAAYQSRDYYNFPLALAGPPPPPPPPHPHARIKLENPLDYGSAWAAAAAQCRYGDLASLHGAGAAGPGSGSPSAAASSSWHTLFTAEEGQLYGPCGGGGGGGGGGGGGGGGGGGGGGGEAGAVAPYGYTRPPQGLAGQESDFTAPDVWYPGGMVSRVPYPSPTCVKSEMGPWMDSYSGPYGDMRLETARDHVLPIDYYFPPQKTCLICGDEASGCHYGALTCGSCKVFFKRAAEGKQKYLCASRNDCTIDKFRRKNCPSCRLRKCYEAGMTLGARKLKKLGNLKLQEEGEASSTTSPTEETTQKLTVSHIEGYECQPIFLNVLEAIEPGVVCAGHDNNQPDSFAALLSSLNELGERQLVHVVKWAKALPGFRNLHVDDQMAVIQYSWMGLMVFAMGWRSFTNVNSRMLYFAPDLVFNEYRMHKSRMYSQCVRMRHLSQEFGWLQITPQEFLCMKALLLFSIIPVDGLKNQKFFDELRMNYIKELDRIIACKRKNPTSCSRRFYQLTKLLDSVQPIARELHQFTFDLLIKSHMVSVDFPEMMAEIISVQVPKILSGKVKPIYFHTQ
# PROTOCOL DETAILS: Androgen Receptor ELISA assay (PathScan AR ELISA) in VCaP cells: AR degradation, Dmax and DC50
# Format: cell-based
# SETTINGS: VCaP, read-out: VCaP Dmax (%)

Req: Respond only with Dmax recorded for Cc1ncsc1-c1ccc(CNC(=O)[C@@H]2C[C@@H](O)CN2C(=O)[C@@H](NC(=O)COCCCCOc2ccc(-c3ccc(N4C(=S)N(c5ccc(C#N)c(C(F)(F)F)c5)C(=O)C4(C)C)cc3F)cc2)C(C)(C)C)cc1 [Example 400]
Resp: > 71%

Req: Respond only with Dmax recorded for Cc1ncsc1-c1ccc([C@H](C)NC(=O)[C@@H]2C[C@@H](O)CN2C(=O)[C@@H](NC(=O)COCCN2C[C@H]3C[C@@H]2CN3c2ccc(C(=O)N[C@H]3C(C)(C)[C@H](Oc4ccc(C#N)c(Cl)c4)C3(C)C)cn2)C(C)(C)C)cc1 [Example 636]
Resp: > 71%

Req: Respond only with Dmax recorded for Cc1ncsc1-c1ccc([C@H](C)NC(=O)[C@@H]2C[C@@H](O)CN2C(=O)[C@@H](NC(=O)COCCCOCCCCCOc2c(F)cc(N3C(=S)N(c4ccc(C#N)c(C(F)(F)F)c4)C(=O)C3(C)C)cc2F)C(C)(C)C)cc1 [Example 11]
Resp: 51 to 70%

Req: Respond only with Dmax recorded for Cc1ncsc1-c1ccc([C@H](C)NC(=O)[C@@H]2C[C@@H](O)CN2C(=O)[C@@H](C(C)C)n2cc(Oc3ccc(OC4CCC(Oc5ccc(N6C(=S)N(c7ccc(C#N)c(C(F)(F)F)c7)C(=O)C6(C)C)cc5)CC4)nc3)cn2)cc1 (some centres unmarked) [Example 628]
Resp: 26 to 50%

Req: Respond only with Dmax recorded for CC(C)(C)[C@H](NC(=O)COCCCOCCCCCOc1ccc(N2C(=S)N(c3ccc(C#N)c(C(F)(F)F)c3)C(=O)C2(C)C)cc1)C(=O)N1C[C@H](O)C[C@H]1C(=O)NCc1ccc(C#N)cc1 [Example 15]
Resp: 26 to 50%

Req: Respond only with Dmax recorded for CC(=O)O[C@@H]1C[C@@H](C(=O)N[C@@H](C)c2ccc(-c3scnc3C)cc2)N(C(=O)[C@H](C(C)C)N2Cc3cc(OCCN4CCN(c5ccc(C(=O)N[C@H]6C(C)(C)[C@H](Oc7ccc(C#N)c(Cl)c7)C6(C)C)cn5)CC4)ccc3C2=O)C1 [Example 852]
Resp: 51 to 70%

Req: Respond only with Dmax recorded for Cc1ncsc1-c1ccc(CNC(=O)[C@@H]2C[C@@H](O)CN2C(=O)[C@@H](NC(=O)COCCCCOCCCCOc2cccc(N3C(=S)N(c4ccc(C#N)c(C(F)(F)F)c4)C(=O)C3(C)C)c2)C(C)(C)C)cc1 [Example 320]
Resp: 26 to 50%

Req: Respond only with Dmax recorded for Cc1ncsc1-c1ccc(CNC(=O)[C@@H]2C[C@@H](O)CN2C(=O)[C@@H](NC(=O)CN(C)CCCCOCCCOc2ccc(N3C(=S)N(c4ccc(C#N)c(C(F)(F)F)c4)C(=O)C3(C)C)cc2)C(C)(C)C)cc1 [Example 317]
Resp: 26 to 50%

Req: Respond only with Dmax recorded for CC(C)(C)[C@H](NC(=O)COCCCCOc1ccc(-c2ccc(N3C(=S)N(c4ccc(C#N)c(Cl)c4)C(=O)C3(C)C)cc2)cc1)C(=O)N1C[C@H](O)C[C@H]1C(=O)NCc1ccc(-c2cnco2)cc1 [Example 94]
Resp: > 71%

Req: Respond only with Dmax recorded for Cc1ncsc1-c1ccc(CNC(=O)[C@@H]2C[C@@H](O)CN2C(=O)[C@@H](NC(=O)CCc2ccc(OCCCOc3ccc(N4C(=S)N(c5ccc(C#N)c(C(F)(F)F)c5)C(=O)C4(C)C)cc3)cc2)C(C)(C)C)cc1 [Example 292]
Resp: 26 to 50%

Req: Respond only with Dmax recorded for Cc1ncsc1-c1ccc([C@H](CO)NC(=O)C2C[C@@H](O)CN2C(=O)C(NC(=O)CN2C3CCC2CN(CCCc2ccc(C(=O)NC4C(C)(C)C(Oc5ccc(C#N)c(Cl)c5)C4(C)C)cc2)C3)C(C)(C)C)cc1 (some centres unmarked) [Example 828]
Resp: > 71%

Req: Respond only with Dmax recorded for Cc1ncsc1-c1ccc(CNC(=O)[C@@H]2C[C@@H](O)CN2C(=O)[C@@H](NC(=O)CCCOCCCOCCCOc2ccc(N3C(=S)N(c4ccc(C#N)c(C(F)(F)F)c4)C(=O)C3(C)C)cc2)C(C)(C)C)cc1 [Example 301]
Resp: 51 to 70%

Req: Respond only with Dmax recorded for Cc1ncsc1-c1ccc([C@H](C)NC(=O)[C@@H]2C[C@@H](O)CN2C(=O)[C@@H](NC(=O)CN2C[C@H](C)N(CCCc3ccc(C(=O)N[C@H]4C(C)(C)[C@H](Oc5ccc(C#N)c(Cl)c5)C4(C)C)cc3)C[C@H]2C)C(C)(C)C)cc1 [Example 816]
Resp: > 71%

Req: Respond only with Dmax recorded for Cc1ncsc1-c1ccc(CNC(=O)[C@@H]2C[C@@H](O)CN2C(=O)[C@@H](NC(=O)COC[C@H](O)[C@@H](O)COc2ccc(-c3ccc(N4C(=S)N(c5ccc(C#N)c(C(F)(F)F)c5)C(=O)C4(C)C)cc3)cc2)C(C)(C)C)cc1 [Example 567]
Resp: > 71%

Req: Respond only with Dmax recorded for Cc1ncsc1-c1ccc(CNC(=O)[C@@H]2C[C@@H](O)CN2C(=O)[C@@H](NC(=O)COCCCOCCCOc2ccc(CN3C(=S)N(c4ccc(C#N)c(C(F)(F)F)c4)C(=O)C3(C)C)cc2)C(C)(C)C)cc1 [Example 307]
Resp: 51 to 70%

Req: Respond only with Dmax recorded for Cc1ncsc1-c1ccc(CNC(=O)[C@@H]2C[C@@H](O)CN2C(=O)[C@@H](NC(=O)COCCCCCN(C)C(=O)CCCc2ccc(N3C(=S)N(c4ccc(C#N)c(C(F)(F)F)c4)C(=O)C3(C)C)cc2)C(C)(C)C)cc1 [Example 65]
Resp: 51 to 70%

Req: Respond only with Dmax recorded for Cc1ncsc1-c1ccc(CNC(=O)[C@@H]2C[C@@H](O)CN2C(=O)[C@@H](NC(=O)COCCCOCCC(O)CCOc2ccc(N3C(=S)N(c4ccc(C#N)c(C(F)(F)F)c4)C(=O)C3(C)C)cc2)C(C)(C)C)cc1 (some centres unmarked) [Example 13]
Resp: 26 to 50%
